Just for reference, paper PMC9482650 is where these values come from.

# assayed target: T1, SNTB1, Q13884
# T1 sequence (Q13884 107-205, limits assumed, looked up): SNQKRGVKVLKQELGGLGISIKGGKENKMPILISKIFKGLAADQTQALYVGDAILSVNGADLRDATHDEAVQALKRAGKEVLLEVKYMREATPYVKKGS
# test description: holdup assay
# Set-up: key: below the threshold = too weak to quantify, mostly under pKd 3.1 to 4
# experimental setup: plain residues with an end cap or a label only (N-terminal biotin on a linker: ado-ado)
Exercise: for every item that follows, state its recorded pKd.
Numbers only.

binder	measurement
GQNMTVSVVI [PRLHR, P49683]	4.15

For the next question, use this binder.
[ask] What value of measured pKd is listed for KEKASTETEC [TRPM1, Q7Z4N2] ?
[reply] 4.17
